src = patent US20250333501A1

Molecular target: T1, CLDN6 endogenously expressed by human cancer cell lines (ARK2, OVCA429) (human, UniProt P56747 1-220)
T1 construct: Untagged endogenous protein; also called Endogenous CLDN6+
T1 sequence: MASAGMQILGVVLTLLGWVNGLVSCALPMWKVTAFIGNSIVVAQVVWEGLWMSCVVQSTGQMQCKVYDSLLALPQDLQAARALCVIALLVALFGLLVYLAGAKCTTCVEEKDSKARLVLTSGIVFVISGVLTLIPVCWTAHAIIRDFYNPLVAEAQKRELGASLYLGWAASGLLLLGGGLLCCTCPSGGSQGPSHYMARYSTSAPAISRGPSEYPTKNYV
Assay: FACS, 1.5 µg Ab, OVCA429 cells
Entries and their measured FACS fluorescence follow.
Just the number.

binder | FACS fluorescence
AB9-chim (antibody, V domains shown, 'chim' is the pre-humanized form (parental variable regions); also called pre-humanized (chimeric) form of AB9) VH: EVQLQQSGPELVKPGASVKMSCKASGYRFTDYNMHWVKQSHGKSLEWIGYINPNNGGTNYNQNFKGKATLTVNKSSSTAYMELRSLTSEDSAAYYCARDYLYFFDCWGQGTTLTVSS VL: DIQMTQSPASQSASLGESVTITCLASQTIGTWLAWYQQKPGKSPQLLIYAAASLADGVPSRFSGSGSGTRFSFKISSLQAEDFVSYYCQQLYSIPRTFGGGTKLEIK | 3570

[in] Quote FACS fluorescence reported for AB11-3 (antibody, V domains shown, also called Humanized AB 11-3) VH: EVQLVESGGGLVQPGGSLRLSCAASGFTFSSFGMHWVRQAPGKGLEWVAYISSDSRTIYYADSVKGRFTISRDNAKNSLYLQMNSLRAEDTAVYYCARDYGRTYEAYWGQGTLVTVSS VL: DIVLTQSPDSLAVSLGERATINCRASKSVSTSGYSYIHWYQQKPGQPPKLLIYLASNLESGVPDRFSGSGSGTDFTLTISSVQAEDVAVYYCQHSRELPLTFGQGTKLELK please.
[out] 2200
